// growth lookup, one value per entry
Tested on: SK-OV-3 ovarian
EXPERIMENTAL_DETAILS: NCI-60 one-dose screen, 48 h (100 = growth as untreated, 0 = no growth, -100 = all killed)
EXPERIMENTAL_SETUP: 10 µM unless noted
This is part of a sample that, as a whole, favours compounds with a hit. Of some 83,000 tested, about 20% had one in any assay.
The reply should be a number in %, with the unit left off.

MOLECULE	UNIT	growth
O=C=Nc1ccc(Br)cc1	%	99.1
CC1(C)S[C@H]2CC[C@H]3OC(=O)[C@@H]1N23	%	111
Cc1cc(Br)c([N+](=O)[O-])cc1[N+](=O)[O-]	%	104
COc1cc(C=C2C(=O)NC(=O)NC2=O)ccc1O	%	107
CC12CCC3C(CCC4CC(O)CCC43C)C1CCC2=O (configuration not stated)	%	126
CCCC(C)SP(=S)(SC(C)CCC)SC(C)CCC (configuration not stated)	%	108

QUERY: Query the reported growth for SK-OV-3 ovarian; item: N#Cc1ccc(Cl)cc1
RESULT: 109

----------
System: PC-3 prostate
EXPERIMENTAL_DETAILS: NCI-60 one-dose screen, 48 h
EXPERIMENTAL_SETUP: 10 µM unless noted
Compounds without any hit were thinned out: in the full panel of roughly 83,000, 20% have a hit. Calls of active or inactive are those of the source. The calls were made as follows: active = growth percent below 10; inactive = the rest.
Returns: one label drawn from active, inactive

COMPOUND	LABEL_CLASS
O=C=Nc1ccc(Br)cc1	inactive

QUERY: Assay outcome for COc1cc(/C=C\[N+](=O)[O-])ccc1OCc1ccccc1 : what was it?
RESULT: inactive

QUERY: Same question for CC[C@H](C)[C@H](NC(=O)c1cnccn1)C(=O)N(C)[C@H](C[C@@H](OC(C)=O)c1nc(C(=O)N[C@@H](Cc2ccccc2)C[C@H](C)C(=O)OC)cs1)C(C)C please.
RESULT: inactive

QUERY: Now the compound COc1ccc(O)c2c(=O)c3c(OC)cc4c(c3oc12)[C@@H]1C=CO[C@@H]1O4
RESULT: inactive

QUERY: Follow-up entry: CC1OC(=O)C(C(C)C)NC(=O)C(C(C)C)OC(=O)C(C(C)C)NC(=O)C(C)OC(=O)C(C(C)C)NC(=O)C(C(C)C)OC(=O)C(C(C)C)NC(=O)C(C)OC(=O)C(C(C)C)NC(=O)C(C(C)C)OC(=O)C(C(C)C)NC1=O (stereo not drawn)
RESULT: active

QUERY: How about this compound: c1ccc2c(c1)O[As](O[As]1Oc3ccccc3O1)O2
RESULT: inactive

QUERY: And then Cc1cc(N(CCCl)CCCl)ccc1C=Nc1ccc(-c2csc(-c3ccccc3)n2)cc1 , what is it?
RESULT: inactive

QUERY: Record: Cc1ccccc1-n1c(/C=C\c2ccccn2)nc2ccccc2c1=O
RESULT: inactive

----------
Tested on: RPMI-8226 leukemia
EXPERIMENTAL_DETAILS: NCI-60 one-dose screen, 48 h (100 = growth as untreated, 0 = no growth, -100 = all killed)
EXPERIMENTAL_SETUP: 10 µM unless noted
Method: Growth inhibition of the RPMI-8226 human tumor cell line is measured as a screen for anti-cancer activity. Cells are grown in 96 well plates and exposed to the test compound for 48 hours. Compounds are tested at a single concentration, which is 10^-5 M for most compounds. The reported endpoint is percent growth (GI% or GIPRCNT), where numbers from 0 - 100% represent growth inhibition, and numbers from -100% - 0 represent cell death. For example, a value of 40 represents 60% growth inhibition. […]
This is part of a sample that, as a whole, favours compounds with a hit. Of some 83,000 tested, about 20% had one in any assay.
Readings of growth for the listed compounds
Return type: number; implicit unit %.

Answered examples (7):
COMPOUND	TESTED_SYSTEM	UNIT	growth
COc1cc(C2C3=C(CCCC3=O)N(CCO)c3cc4c(cc32)CCC4)cc(OC)c1OC (stereo not drawn)	RPMI-8226 leukemia	%	76.2
C#Cc1cccc(Nc2nc(Cl)nc3cc(NC(=O)CF)ccc23)c1	RPMI-8226 leukemia	%	103
O=C1c2ccccc2C(=O)N1N1CC1c1ccccc1 (stereo not drawn)	RPMI-8226 leukemia	%	101
CC[C@H](C)[C@H](NC(=O)[C@H]1CCCCN1C)C(=O)N(C)[C@H](C[C@@H](OC(C)=O)c1nc(C(=O)NC23C4C5C2C2C3C4C52C(=O)OC)cs1)C(C)C (stereo partly drawn)	RPMI-8226 leukemia	%	29.2
CC[C@H](C)[C@H](NC(=O)c1ncccn1)C(=O)N(C)[C@H](C[C@@H](OC(C)=O)c1nc(C(=O)N[C@@H](Cc2ccccc2)C[C@H](C)C(=O)OC)cs1)C(C)C	RPMI-8226 leukemia	%	17.7
CCCC1CCCCC12C(=O)NC(=O)NC2=O (stereo not drawn)	RPMI-8226 leukemia	%	95.9
C[C@]12CCC(=O)C[C@@H]1CC[C@@H]1[C@@H]2CC[C@]2(C)[C@@H](OC(=O)N(CCCl)N=O)CC[C@@H]12	RPMI-8226 leukemia	%	17.4

Moving on to another compound below.
QUERY: Value lookup for growth; key = c1ccc2c(c1)O[As](O[As]1Oc3ccccc3O1)O2
RESULT: -14.9
